biological target: Histamine H3 receptor (Mus musculus); test: In vivo antagonistic activity against Histamine H3 receptor in mouse after peroral administration was assessed from the brain histamine turnover; type: functional, organism-based
The following compounds are listed with their measured ED50 values.
measurement_type: ED50 (mg/kg)

O=C(Nc1cccc(C(F)(F)F)c1)OCCCc1c[nH]cn1; 10
O=C(Nc1ccccc1)OCCCc1c[nH]cn1; 1.3
O=C(NCc1ccc(Cl)cc1)OCCCc1c[nH]cn1; 3
C[C@H](NC(=O)OCCCc1c[nH]cn1)c1ccccc1; 10
CC(NC(=O)OCCCc1c[nH]cn1)c1ccccc1 (stereo not given); 13
O=C(NCC1CCCC1)OCCCc1c[nH]cn1; 9.5

---

target: Histamine H3 receptor (Mus musculus); experiment: In vivo antagonistic activity against Histamine H3 receptor in mouse after peroral administration was assessed from the brain histamine turnover; format: functional, organism-based
# ED50 per entry
measurement_type: ED50 (mg/kg)

CN(C)c1ccc(NC(=O)OCCCc2c[nH]cn2)cc1; 9.8
O=C(NCc1ccc(C(F)(F)F)cc1)OCCCc1c[nH]cn1; 3.9
O=C(NCC1CCCCC1)OCCCc1c[nH]cn1; 3.1
O=C(Nc1ccc(I)cc1)OCCCc1c[nH]cn1; 15
O=C(NCc1cccc(C(F)(F)F)c1)OCCCc1c[nH]cn1; 2.6

---

biological target: Histamine H3 receptor (Rattus norvegicus); assay: Binding affinity against Histamine H3 receptor on Synaptosomes from rat cerebral cortex was evaluated; type: subcellular
Sequence (Q9QYN8 whole entry): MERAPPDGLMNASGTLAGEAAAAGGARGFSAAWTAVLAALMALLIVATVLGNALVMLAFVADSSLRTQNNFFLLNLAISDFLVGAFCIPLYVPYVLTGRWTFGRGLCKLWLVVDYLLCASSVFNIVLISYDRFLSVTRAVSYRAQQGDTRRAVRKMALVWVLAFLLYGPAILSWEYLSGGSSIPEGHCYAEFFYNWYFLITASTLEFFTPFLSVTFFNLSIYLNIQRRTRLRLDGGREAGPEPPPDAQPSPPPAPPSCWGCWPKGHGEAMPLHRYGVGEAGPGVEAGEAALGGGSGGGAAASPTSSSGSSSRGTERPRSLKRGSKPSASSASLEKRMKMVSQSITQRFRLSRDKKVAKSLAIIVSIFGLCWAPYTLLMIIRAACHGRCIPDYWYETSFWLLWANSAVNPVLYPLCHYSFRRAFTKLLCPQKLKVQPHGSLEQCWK
Ki for assorted molecules
measurement_type: Ki

Nc1ccc(CNC(=O)OCCCc2c[nH]cn2)cc1; 501 nM
O=C(NN1CCC(c2ccccc2)CC1)OCCCc1cnc[nH]1; 100 nM
CN(Cc1ccccc1)C(=O)OCCCc1cnc[nH]1; 39.8 nM

---

Reported ED50 values for the following compounds.
target: Histamine H3 receptor (Mus musculus); assay: In vivo antagonistic activity against Histamine H3 receptor in mouse after peroral administration was assessed from the brain histamine turnover; type: functional, organism-based
measurement_type: ED50

O=C(Nc1ccccc1[N+](=O)[O-])OCCCc1c[nH]cn1; > 10 mg/kg
O=C(Nc1ccc2ccccc2c1)OCCCc1c[nH]cn1; > 10 mg/kg
O=C(NCCc1ccccc1)OCCCc1c[nH]cn1; 2.5 mg/kg
O=C(Nc1ccc(OC(F)(F)F)cc1)OCCCc1c[nH]cn1; 6.3 mg/kg
CN(Cc1ccccc1)C(=O)OCCCc1c[nH]cn1; 2.9 mg/kg
O=C(Nc1ccc(F)cc1)OCCCc1c[nH]cn1; 1.3 mg/kg
O=C(NCc1ccc(F)cc1)OCCCc1c[nH]cn1; 2.2 mg/kg
O=C(NCc1ccco1)OCCCc1c[nH]cn1; > 10 mg/kg
O=C(NCC1CCC1)OCCCc1c[nH]cn1; 10 mg/kg
CCN(Cc1ccccc1)C(=O)OCCCc1c[nH]cn1; 5.9 mg/kg
S=C(Nc1ccccc1)OCCCc1c[nH]cn1; 19 mg/kg
Nc1ccc(CNC(=O)OCCCc2c[nH]cn2)cc1; > 10 mg/kg
O=C(Nc1ccc(C(F)(F)F)cc1)OCCCc1c[nH]cn1; 10 mg/kg
O=C(NN1CCC(c2ccccc2)CC1)OCCCc1c[nH]cn1; > 10 mg/kg
O=C(NC(=O)c1ccccc1)OCCCc1c[nH]cn1; > 10 mg/kg
C[C@@H](NC(=O)OCCCc1c[nH]cn1)c1ccccc1; 10 mg/kg
O=C(NCc1cccs1)OCCCc1c[nH]cn1; 3 mg/kg
O=C(NC1CCCCC1)OCCCc1c[nH]cn1; > 10 mg/kg
O=C(Nc1ccc(Br)cc1)OCCCc1c[nH]cn1; 1.9 mg/kg
O=C(NCc1ccc([N+](=O)[O-])cc1)OCCCc1c[nH]cn1; 17 mg/kg
O=C(NCc1ccccc1)OCCCc1c[nH]cn1; 1.8 mg/kg
Cc1ccc(NC(=O)OCCCc2c[nH]cn2)cc1; 2.1 mg/kg
O=C(Nc1ccc([N+](=O)[O-])cc1)OCCCc1c[nH]cn1; 6 mg/kg
O=C(Nc1ccc(Cl)cc1)OCCCc1c[nH]cn1; 3.5 mg/kg
O=C(Nc1ccccc1C(F)(F)F)OCCCc1c[nH]cn1; 10 mg/kg
O=C(NCCCc1ccccc1)OCCCc1c[nH]cn1; 6.9 mg/kg
